Just for reference, patent US20250382355A1 is where these values come from.

Exercise: state measured binning response for each of the binders provided.
Target: Biotinylated CoV2 Spike ECD PreS-AVI protein (SARS-CoV-2, UniProt P0DTC2 14-1208)
Test: Octet binning; competitor 15H7
In your answer, state the number alone without any accompanying words.

Per the record, 19C10 VHH-Fc (Fc fusion) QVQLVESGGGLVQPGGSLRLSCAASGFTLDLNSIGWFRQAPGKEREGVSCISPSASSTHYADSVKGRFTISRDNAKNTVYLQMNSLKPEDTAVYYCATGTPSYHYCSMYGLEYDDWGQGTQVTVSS has binning response of 0.1

// sample 13C8 VHH-Fc (Fc fusion) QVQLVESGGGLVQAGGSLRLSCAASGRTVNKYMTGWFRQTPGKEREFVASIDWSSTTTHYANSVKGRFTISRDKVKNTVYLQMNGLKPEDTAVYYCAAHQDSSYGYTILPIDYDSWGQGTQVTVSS , its binning response was 0.1

Lab book: binning response of 11F8 VHH-Fc (Fc fusion) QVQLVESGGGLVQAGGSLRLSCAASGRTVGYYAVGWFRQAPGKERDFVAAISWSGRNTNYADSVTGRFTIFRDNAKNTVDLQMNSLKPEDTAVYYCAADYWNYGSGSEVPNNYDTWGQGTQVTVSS noted as 0.14

So, 5D7 VHH-Fc (Fc fusion) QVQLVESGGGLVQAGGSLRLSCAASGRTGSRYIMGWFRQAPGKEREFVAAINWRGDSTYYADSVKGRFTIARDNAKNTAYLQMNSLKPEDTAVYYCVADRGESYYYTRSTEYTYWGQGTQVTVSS ? Its binning response was 0.15
